Source of measurements: the Human Domainome abundance scans (Beltran et al. 2025)

B1: Mineralocorticoid receptor, residues 600 to 675; numbered along this chain, P08235 (parent)
chain: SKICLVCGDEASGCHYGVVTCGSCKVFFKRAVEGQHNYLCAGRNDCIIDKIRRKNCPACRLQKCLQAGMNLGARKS

# Variants of: B1
# EXPERIMENT_NOTES: abundance fitness (aPCA) (normalised: wild type 0, dead -1); higher = more abundant; growth selection in yeast, the domain comes from the species named
# APPLIED_CONDITIONS: Homo sapiens
The following variants are shown together with reported abundance fitness values.
Would you mind answering with just the numeric figure?

Here is how some variants turned out for abundance fitness.
F27D = -0.676
G17N = -0.126
Q66F = -0.019
E10D = -0.018
C46G = -0.636
S23A = -0.125
K75E = 0.055
P57F = -0.016
C14M = 0.015
A11I = -0.354

Form: variant = G17S ; abundance fitness = -0.044

Form: variant = N37H ; abundance fitness = -0.051

Form: variant = L61I ; abundance fitness = -0.155

Form: variant = K25H ; abundance fitness = -0.128

Form: variant = I48C ; abundance fitness = -0.226
